Origin of values: paper PMC2756588

- ASSAYED_TARGET: T1, Boi2, P39969
- T1 sequence (P39969 32-116, looked up): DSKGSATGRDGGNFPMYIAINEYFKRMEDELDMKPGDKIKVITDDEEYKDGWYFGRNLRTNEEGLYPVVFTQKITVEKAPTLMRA
- PROTOCOL_SUMMARY: SPOT array
- CONDITIONS_USED: median of control spots 1161
ENDPOINT: SPOT intensity

TKFRISLGLPVGAIM ... 0
RKNRAPPQRPRFNRE ... 3
KDKSRPPRPPPKPLH ... 0
AAAPKHAPPPVPNET ... 0

[P] APPPPPRRATPEKKP
[Q] PPPPPPPPPPLPQSL
[R] KRKRFNLLLPKPYLT
Ranking field: SPOT intensity; order: falling. Return the labels ranked in the requested order, please.
R, P, Q
(R: 2, P: 1, Q: 0)

[P] QGYPRQPQRPQRYHP
[Q] QQNRPLPQLPNRNNR
Would you mind telling me which has the lower recorded SPOT intensity between P and Q ? # respond with the chosen item's label
P

[1] KKEKKPPKIPKKVYT
[2] FTLPPPPPPPGLDEL
Which has the smaller recorded SPOT intensity, 1 or 2 ? The response must carry the label of the picked entry.
2
